Tested on: Escherichia coli TOP10;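 further: peptides expressed intracellularly from a pBAD plasmid library in pooled LB shake-flask culture, induced with 0.3% L-arabinose, DNA abundance read by NGS, three biological replicates, DESeq2 with apeglm shrinkage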
experiment: shrunken log2 fold change of peptide-encoding DNA abundance (4.5 h post-induction vs induction); higher = less antimicrobial activity (less host growth inhibition)
condition.set: time post-induction: 4.5 h; library: site-saturation at positions 5, 18, 19, 20
assay.endpoint: shrunken log2 fold change

Write down shrunken log2 fold change measured for item RRIRHRPPRLPRPRPRPYPRPRP -0.27

Write down shrunken log2 fold change measured for item RRIRYRPPRLPRPRPRPEIAPRP -0.185

Write down shrunken log2 fold change measured for item RRIRNRPPRLPRPRPRPELRPRP 0.0572

Write down shrunken log2 fold change measured for item RRIRDRPPRLPRPRPRPIVNPRP -0.0751

Write down shrunken log2 fold change measured for item RRIRFRPPRLPRPRPRPNVEPRP 0.0199

Write down shrunken log2 fold change measured for item RRIRERPPRLPRPRPRPHASPRP -0.346

Write down shrunken log2 fold change measured for item RRIRHRPPRLPRPRPRPSAYPRP -0.562

Write down shrunken log2 fold change measured for item RRIRERPPRLPRPRPRPGVRPRP 0.125

Write down shrunken log2 fold change measured for item RRIRVRPPRLPRPRPRPGNEPRP -0.203

Write down shrunken log2 fold change measured for item RRIRDRPPRLPRPRPRPCNMPRP -0.225

Write down shrunken log2 fold change measured for item RRIRARPPRLPRPRPRPRFKPRP 0.122

Write down shrunken log2 fold change measured for item RRIRQRPPRLPRPRPRPLVFPRP -0.0658

Write down shrunken log2 fold change measured for item RRIRERPPRLPRPRPRPVLKPRP 0.0458

Write down shrunken log2 fold change measured for item RRIRPRPPRLPRPRPRPQESPRP -0.0337

Write down shrunken log2 fold change measured for item RRIRLRPPRLPRPRPRPHKMPRP -0.355
